# credit: ChEMBL document CHEMBL1770132

assay: Half life in plasma of C57BL/6 mouse at 1 mg/kg, iv and 2 mg/kg, po; assay type: ADME, organism-based
result.type: half-life (h)
// return numeric value only (unit: h, not printed)

Exam item: Recorded half-life for O=C(CCc1ccc(-c2ccc(O)cc2)cc1)Nc1ccccc1C(=O)O , please?
Marked response: 2.4

* * *

experiment: Bioavailability in C57BL/6 mouse at 1 mg/kg, iv and 2 mg/kg, po; assay type: ADME, organism-based; details: in vivo
Entries and their bioavailability
In your response, put the unit directly after the numeric value.

Record excerpt, results attached:
>  <record.smiles>
N[C@@H](Cc1nc(-c2ccc(O)cn2)no1)C(=O)NC1=C(C(=O)O)CCCC1

>  <bioavailability>
9%

$$$$
>  <record.smiles>
C[C@@H]1CCC(C(=O)O)=C(NC(=O)[C@@H](N)Cc2nc(-c3ccc(O)cn3)no2)C1

>  <bioavailability>
7.5%

$$$$
>  <record.smiles>
C[C@@H]1CCC(C(=O)O)=C(NC(=O)[C@@H](N)Cc2nc(-c3ccc(F)cn3)no2)C1

>  <bioavailability>
100%

$$$$

Exam item: Recorded bioavailability for C[C@@H]1CCC(C(=O)O)=C(NC(=O)CCc2nc(-c3ccc(F)cn3)no2)C1 , please?
Marked response: 54%
